For each record, write down the corresponding IC50.
Test system: HT-29
assay_name: cells
conditions: Homo sapiens, HT-29, 72 h
Description: Cytotoxicity against human HT-29 cells assessed as cell growth inhibition after 72 hrs by MTT assay

Which IC50 value belongs to COc1cc2c(Oc3ccc(NC(=O)c4c(Cl)c5ccccc5n(-c5ccccc5OC(F)(F)F)c4=O)cc3F)ccnc2cc1OCCCN1CCC(C)CC1 ?
0.57 µM

Do the same for COc1cc2c(Oc3ccc(NC(=O)c4c(Cl)c5ccccc5n(-c5ccccc5OC(F)(F)F)c4=O)cc3F)ccnc2cc1OCCCN1CCCC1 please
1.5 µM

Same lookup for COc1cc2c(Oc3ccc(NC(=O)c4c(Cl)c5ccccc5n(-c5ccccc5F)c4=O)cc3F)ccnc2cc1OCCCN1CCOCC1 , please.
1.21 µM

Further, for COc1cc2c(Oc3ccc(NC(=O)c4c(Cl)c5ccccc5n(-c5ccccc5OC)c4=O)cc3F)ccnc2cc1OCCCN1CCOCC1 ?
1.4 µM

Sourced from ChEMBL document CHEMBL3779856
